Target: T1, human Claudin 18.2 protein (human)
T1 construct: Expressed on transfected cells (CHO-hCLDN18.2, HEK293-hCLDN18.2, 3T3-hCLDN18.2) from pCMV3-hCLDN18.2; also called human CLDN18.2; hCLDN18.2
T1 sequence (chain, as listed by the source limits assumed): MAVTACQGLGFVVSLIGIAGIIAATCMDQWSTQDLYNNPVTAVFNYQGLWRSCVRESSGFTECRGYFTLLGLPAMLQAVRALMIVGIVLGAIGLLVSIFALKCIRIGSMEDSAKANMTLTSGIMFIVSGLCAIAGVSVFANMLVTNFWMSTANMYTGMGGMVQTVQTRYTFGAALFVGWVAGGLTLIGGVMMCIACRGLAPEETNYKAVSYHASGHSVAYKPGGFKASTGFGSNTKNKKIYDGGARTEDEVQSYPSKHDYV
Assay: FACS cell surface binding analysis
Measured EC50, listed per entry.

[
  {
    "BINDER": "47D10 mouse chimeric antibody (murine VH/VL on human IgG1 constant regions) (antibody, V domains shown, also called murine clone 47D10; mouse 47D10 chimeric control antibody) VH: QVMLVESGGGLVKPGGSLKLSCAASGFAFSSSAMSWIRQTPEKRLEWVATMTVGYIYTYYLDTVKGRFIISRDNANNTLYLQMSSLRSEDSAMYYCARQGYGNAMDYWGQGTSVTVSS VL: DIVMTQSPSSLTVTAGEKVTMSCKSSQSLLNSGNQKNYLTWYQQKPGQPPKLLIYWASTRESGVPYRFTGSGSGTDFTLTISSVEAEDLAVYYCQNNYIYPLTFGAGTKLELK",
    "UNIT OF MEASURE": "nM",
    "EC50": 1.97
  },
  {
    "BINDER": "32G4-huIgG1-V9 (antibody, V domains shown, Humanized full IgG1 antibody; also called humanized 32G4 variant V9; 32G4-V9) VH: EVQLVQSGSELKKPGASVKVSCKASGYSSTGYNINWVRQAPGQGLEWIGNINPYYGGITYNQGFTGRFVLSVDKSSSTAYLQISSLKAEDTAVYYCARDYYGNSFAYWGQGTLVTVSS VL: DIVMTQSPDSLAVSLGERATINCKSSQSLLNSGNQKNYLTWYQQKPGQPPKLLIFWASTRESGVPDRFSGSGSGTDFTLTISSLQAEDVAVYYCQNNYYFPYTFGQGTKLEIKR",
    "UNIT OF MEASURE": "nM",
    "EC50": 0.129
  },
  {
    "BINDER": "32G4-huIgG1-V8 (antibody, V domains shown, Humanized full IgG1 antibody; also called humanized 32G4 variant V8; 32G4-V8) VH: QVQLVQSGAEVKKPGASVKVSCKASGYSSTGYNINWVRQAPGQGLEWMGNINPYYGGITYNQKFQGRVTMTVDKSISTAYMELSRLRSDDTVVYYCARDYYGNSFAYWGQGTLVTVSS VL: DIQMTQSPSSLSASVGDRVTITCRSSQSLLNSGNQKNYLTWYQQKPGKAPKLLIFWASTLESGVPSRFSGSGSGTDFTLTISSLQPEDFATYYCQNNYYFPYTFGQGTKLEIKR",
    "UNIT OF MEASURE": "nM",
    "EC50": 0.147
  },
  {
    "BINDER": "47D10-huIgG1-V7 (antibody, V domains shown, Humanized full IgG1 antibody; also called humanized 47D10 variant V7; 47D10-V7) VH: QVQLVESGGGLVKPGGSLRLSCAASGFAFSSSAMSWIRQAPGKGLEWVATMTVGYIYTYYLDSVKGRFTISRDNAKNSLYLQMNSLRAEDTAVYYCARQGYGNAMDYWGQGTLVTVSS VL: DIVMTQSPGTLSLSPGERATLSCRSSQSLLNSGNQKNYLTWYQQKPGQAPRLLIYWASTRESGIPDRFSGSGSGTDFTLTISRLEPEDFAVYYCQNNYIYPLTFGQGTKLEIKR",
    "UNIT OF MEASURE": "nM",
    "EC50": 0.361
  },
  {
    "BINDER": "32G4 mouse chimeric antibody (murine VH/VL on human IgG1 constant regions) (antibody, V domains shown, also called murine clone 32G4; mouse 32G4 chimeric control antibody) VH: EVQLQQSGPELENPGASVKIFCKASGYSSTGYNINWVKQSSGKSLEWIGNINPYYGGITYNQKFKGKATLTVDKSSSTAYVQLKSLTSEDSAVYYCARDYYGNSFAYWGQGTLVTVST VL: DIVMTQSPSSLTVTAGEKVTMSCKSSQSLLNSGNQKNYLTWYQQNPGQPPKLLIFWASTRESGVPDRFTGSGSGTDFTLTISSVQAEDLAVYYCQNNYYFPYTFGGGTKLEIR",
    "UNIT OF MEASURE": "nM",
    "EC50": 0.502
  },
  {
    "BINDER": "31A6 mouse chimeric antibody (murine VH/VL on human IgG1 constant regions) (antibody, V domains shown, also called murine clone 31A6) VH: QTYLQQSGAELVRSGASVKMSCKASGYTFASYNIHWVKQTPGQGLEWIGYIYPGKDGSHYNQKFRDKATLTADTSSSTAYMQISSLTSEDSAVYFCARGGYYGNSFDYWGQGTLVTVSA VL: DIVMSQSPSSLTVTTGEKVTMTCKSSQSLLNSGNLKNYLAWYQQKPGQPPKLLIYWASIRESGVPDRFTGSGSGTDFTLTIISVQAEDLAIYYCQNAYTFPFTLGGGTKLEIK",
    "UNIT OF MEASURE": "nM",
    "EC50": 10.9
  },
  {
    "BINDER": "29G4 mouse chimeric antibody (murine VH/VL on human IgG1 constant regions) (antibody, V domains shown, also called murine clone 29G4) VH: QVQLKESGPGLVAPSQTLSITCTVSGFSLTNYGVQWVRQPPGKGLEWLGVIWAGGNTNYNSALLSRLSISKDTSKSQVFLKMNSLKTDDTAMYYCARGGYGNSCDYWGQGTLVTVSA VL: DIVMTQSPSSLTVTAGEKVTMNCKSSQSLLNSGNQKNYLAWYRQKPGQPPKLLIYWASTRGSGVPDRFTGSGSGTDFALTISSVQAEDLAVYYCQNDYFYPLTFGAGTKLDLK",
    "UNIT OF MEASURE": "nM",
    "EC50": 1.26
  },
  {
    "BINDER": "15B10 mouse chimeric antibody (murine VH/VL on human IgG1 constant regions) (antibody, V domains shown, also called murine clone 15B10) VH: QVQLQQSGAELVRPGTSVKVSCKASGYAFSNYLIDWVKQRPGQGLEWIGVIHPGSGTNYNENFKGKATLTADKSSSTAYMQLSSLTSDDSAVYFCSRRWYGNSLIYWGQGTLVTVSA VL: DIVMTQSPSSLTVTAGEKVTMTCKSSQSLLNSGNQRNYLTWYQQKPGQPPKLLIYWASTRESGVPDRFTGSGSGTDFTLTISSVQAEDLAVYYCQNDYFYPFTFGSGTKLEIK",
    "UNIT OF MEASURE": "nM",
    "EC50": 2.2
  },
  {
    "BINDER": "47D10-huIgG1-V6 (antibody, V domains shown, Humanized full IgG1 antibody; also called humanized 47D10 variant V6; 47D10-V6) VH: QVQLVESGGGLVKPGGSLRLSCAASGFAFSSSAMSWIRQAPGKGLEWVATMTVGYIYTYYLDSVKGRFTISRDNAKNSLYLQMNSLRAEDTAVYYCARQGYGNAMDYWGQGTLVTVSS VL: DIVMTQSPLSLPVTPGEPASISCRSSQSLLNSGNQKNYLTWYLQKPGQSPQLLIYWASTRESGVPDRFSGSGSGTDFTLKISRVEAEDVGVYYCQNNYIYPLTFGQGTKLEIKR",
    "UNIT OF MEASURE": "nM",
    "EC50": 0.22
  }
]
